Target: T1, human IL-33 (R&D Systems, #3625-IL-010/CF) (human, UniProt O95760 112-270)
T1 construct: Commercial recombinant protein; also called hIL-33; interleukin-33
T1 sequence (looked up): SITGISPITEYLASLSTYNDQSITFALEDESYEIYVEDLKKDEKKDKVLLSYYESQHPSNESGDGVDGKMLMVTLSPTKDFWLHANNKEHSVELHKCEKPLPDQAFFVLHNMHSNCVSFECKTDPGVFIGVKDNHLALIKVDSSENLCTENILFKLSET
Test: SPR 25C, pH6.0 chase, mAb captured
Outcome measure: koff (s⁻¹)
Write it as a number; the unit s⁻¹ goes unstated.

Binder	koff (s⁻¹)
H4H9672P (antibody, human IgG4, V domains shown, Human IgG4 Fc (H4H)) VH: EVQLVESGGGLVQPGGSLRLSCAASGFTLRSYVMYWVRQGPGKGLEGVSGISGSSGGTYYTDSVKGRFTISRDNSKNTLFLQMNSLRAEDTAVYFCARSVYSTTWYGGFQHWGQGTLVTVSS VL: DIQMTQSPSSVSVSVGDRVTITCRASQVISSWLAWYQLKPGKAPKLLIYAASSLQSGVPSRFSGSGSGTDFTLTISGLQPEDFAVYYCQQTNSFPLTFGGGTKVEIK	0.00141

Data request: // query koff value for entry H4H9665P (antibody, human IgG4, V domains shown, Human IgG4 Fc (H4H)) VH: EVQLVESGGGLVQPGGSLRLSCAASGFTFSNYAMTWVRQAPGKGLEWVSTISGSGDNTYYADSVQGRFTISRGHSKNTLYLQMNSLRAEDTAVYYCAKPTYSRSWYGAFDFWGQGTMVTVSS VL: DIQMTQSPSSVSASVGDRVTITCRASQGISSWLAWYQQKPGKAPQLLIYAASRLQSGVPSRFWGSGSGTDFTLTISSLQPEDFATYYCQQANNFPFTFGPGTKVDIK
Data returned: 0.00212

Data request: Would you mind doing H4H9659P (antibody, human IgG4, V domains shown, Human IgG4 Fc (H4H)) VH: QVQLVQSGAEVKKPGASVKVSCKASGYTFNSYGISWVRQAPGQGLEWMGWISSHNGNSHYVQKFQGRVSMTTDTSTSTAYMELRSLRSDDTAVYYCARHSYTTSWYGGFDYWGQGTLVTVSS VL: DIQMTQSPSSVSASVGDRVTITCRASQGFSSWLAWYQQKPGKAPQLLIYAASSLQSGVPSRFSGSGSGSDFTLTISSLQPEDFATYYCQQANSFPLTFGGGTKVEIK as well?
Data returned: 0.000664

Data request: Can you handle H4H9676P (antibody, human IgG4, V domains shown, Human IgG4 Fc (H4H)) VH: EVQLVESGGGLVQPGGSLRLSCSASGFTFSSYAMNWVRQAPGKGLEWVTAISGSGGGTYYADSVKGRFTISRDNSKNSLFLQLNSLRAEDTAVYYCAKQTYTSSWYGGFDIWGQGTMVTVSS VL: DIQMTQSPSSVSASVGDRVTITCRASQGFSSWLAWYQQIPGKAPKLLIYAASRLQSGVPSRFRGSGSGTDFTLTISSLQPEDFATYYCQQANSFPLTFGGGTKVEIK next?
Data returned: 0.00121

Data request: Next: H4H9664P (antibody, human IgG4, V domains shown, Human IgG4 Fc (H4H)) VH: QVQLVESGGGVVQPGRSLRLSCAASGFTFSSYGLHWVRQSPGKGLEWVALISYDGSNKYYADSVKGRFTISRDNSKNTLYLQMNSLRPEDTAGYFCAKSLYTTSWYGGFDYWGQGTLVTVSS VL: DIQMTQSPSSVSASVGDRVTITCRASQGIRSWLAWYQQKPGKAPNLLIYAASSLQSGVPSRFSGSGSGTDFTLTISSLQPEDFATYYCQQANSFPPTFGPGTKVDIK
Data returned: 0.000823

Data request: Next up: H4H9640P (antibody, human IgG4, V domains shown, Human IgG4 Fc (H4H)) VH: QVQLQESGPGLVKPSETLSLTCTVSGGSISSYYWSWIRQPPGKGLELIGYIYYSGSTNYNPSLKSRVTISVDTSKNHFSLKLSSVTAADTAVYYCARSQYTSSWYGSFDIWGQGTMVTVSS VL: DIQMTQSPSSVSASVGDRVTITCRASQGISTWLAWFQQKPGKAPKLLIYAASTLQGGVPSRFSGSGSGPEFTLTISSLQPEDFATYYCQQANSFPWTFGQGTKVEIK
Data returned: 0.000657
